# test-system: human M1 mAChR (Homo sapiens, UniProt P11229)
# Sequence (P11229 1-460): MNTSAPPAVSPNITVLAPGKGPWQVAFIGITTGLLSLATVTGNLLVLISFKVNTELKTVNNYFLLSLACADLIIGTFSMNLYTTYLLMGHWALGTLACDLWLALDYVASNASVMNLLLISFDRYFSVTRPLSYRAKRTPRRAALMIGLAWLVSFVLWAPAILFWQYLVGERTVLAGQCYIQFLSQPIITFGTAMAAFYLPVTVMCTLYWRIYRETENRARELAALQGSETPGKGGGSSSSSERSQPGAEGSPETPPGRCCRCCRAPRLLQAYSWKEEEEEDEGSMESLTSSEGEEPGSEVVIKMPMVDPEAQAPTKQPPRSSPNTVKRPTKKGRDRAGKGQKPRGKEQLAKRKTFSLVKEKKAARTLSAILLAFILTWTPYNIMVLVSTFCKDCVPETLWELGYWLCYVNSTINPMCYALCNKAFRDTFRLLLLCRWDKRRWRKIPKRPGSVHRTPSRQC
# experiment-description: Calcium mobilization in TET-inducible hM1 TREx CHO cells
# experimental-context: read-out: Ca EC50, TET 50 ng/mL
pEC50: −log10 of the molar value.
Reported pEC50 values for the following compounds.
measured-metric: pEC50

- CCOC(=O)N1CCC(N2CCC[C@@H](NC(=O)c3ccccc3C)C2)CC1 [VU0364572]: 6.00
- CCOC(=O)N1CCC(NCCNC(=O)c2ccccc2C)CC1.Cl [VU0357017]: 5.80
